test: Antioxidant activity assessed as ABTS radical scavenging activity by spectrophotometry; type: physicochemical
measure: IC50 (µM)

Below: 2 compounds and their reported IC50.
[[record]]
compound = "O=C(O)/C=C/c1ccc(O)c(O)c1 [CAFFEIC ACID]"
measure = "IC50"
u = "µM"
reported_value = 17.5

[[record]]
compound = "COc1cc(/C=C/C=C/C(=O)O)ccc1O"
measure = "IC50"
u = "µM"
reported_value = 19.7


(1) COc1cc(/C=C/C(=O)O)ccc1O [FERULATE]
(2) O=C(O)/C=C/C=C/c1ccc(O)c(O)c1 [DEMETHYLENATED PIPERIC ACID]
Which numeric IC50 is bigger, that of 1 or that of 2 ? Give the label of your selection. 1
